# Test system: HSALR mice
# EXPERIMENT_NOTES: Serum biochemistry profile
# Type: in vivo, mouse
# SETUP_CONDITIONS: mouse, in vivo, iv, 9.2 mg/kg
OBSERVED_PROPERTY: Bile Acids

6aKC-23b (antisense GGUAAUCCCUGGCAAUGUGAU; all phosphorodiamidate morpholino (PMO), T or U not given here; Pip6aKC peptide conjugated) : 0,675 ± 0,754 µmol/L

Consider the substance 9b2-218 (antisense ACAUGGUUAGAUCAAGCACAA; all phosphorodiamidate morpholino (PMO), T or U not given here; Pip9b2 peptide conjugated) . State its measured Bile Acids.
74,80 ± 159,433 µmol/L

Return reported Bile Acids. Input substance: 9b2-23b (antisense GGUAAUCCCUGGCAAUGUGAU; all phosphorodiamidate morpholino (PMO), T or U not given here; Pip9b2 peptide conjugated)
9 ± 11,747 µmol/L

* * *

# System: HSALR mice
# EXPERIMENT_NOTES: Serum biochemistry profile
# Type: in vivo, mouse
# SETUP_CONDITIONS: mouse, in vivo, iv, 9.2 mg/kg
This section presents substances with their documented Creatinine values.

Retrieve Creatinine measured for 6aKC-218 (antisense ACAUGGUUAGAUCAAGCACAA; all phosphorodiamidate morpholino (PMO), T or U not given here; Pip6aKC peptide conjugated) and print it.
0,20 ± 0 mg/dL

Respond only with Creatinine recorded for 9b2KC-218 (antisense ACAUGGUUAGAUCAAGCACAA; all phosphorodiamidate morpholino (PMO), T or U not given here; Pip9b2KC peptide conjugated)
0,22 ± 0,084 mg/dL

Provide measured Creatinine value, entry: 9b2-23b (antisense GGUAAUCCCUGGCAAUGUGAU; all phosphorodiamidate morpholino (PMO), T or U not given here; Pip9b2 peptide conjugated)
0,26 ± 0,054 mg/dL

Note down Creatinine recorded for 6aKC-23b (antisense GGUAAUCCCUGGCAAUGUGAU; all phosphorodiamidate morpholino (PMO), T or U not given here; Pip6aKC peptide conjugated)
0,20 ± 0 mg/dL

Tell me Creatinine reported for 9b2-218 (antisense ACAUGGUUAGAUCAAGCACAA; all phosphorodiamidate morpholino (PMO), T or U not given here; Pip9b2 peptide conjugated)
0,32 ± 0,192 mg/dL

Please supply the value of reported Creatinine for the item 9b2KC-23b (antisense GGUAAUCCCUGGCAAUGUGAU; all phosphorodiamidate morpholino (PMO), T or U not given here; Pip9b2KC peptide conjugated)
0.20 ± 0,071 mg/dL

* * *

Form field: Tindex (therapeutic index) (one value per entry).
# System: MBNL1 protein levels in DM1 cells
# Type: cell-based, human
# SETUP_CONDITIONS: Tindex = TC50 x Emax / EC50
Quick one: just the number, no unit, thanks!

9b2KC-23b (antisense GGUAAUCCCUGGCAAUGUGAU; all phosphorodiamidate morpholino (PMO), T or U not given here; Pip9b2KC peptide conjugated) : 404.48
6aKC-218 (antisense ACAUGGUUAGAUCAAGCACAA; all phosphorodiamidate morpholino (PMO), T or U not given here; Pip6aKC peptide conjugated) : 22.78

The record that follows has no Tindex (therapeutic index) shown yet.
Note down Tindex (therapeutic index) recorded for 9b2-23b (antisense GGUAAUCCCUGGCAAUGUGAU; all phosphorodiamidate morpholino (PMO), T or U not given here; Pip9b2 peptide conjugated)
25.19

* * *

# Test system: MBNL1 protein levels in DM1 cells
# Assay type: cell-based, human
# SETUP_CONDITIONS: median effective concentration for MBNL1 increase; DM1 myotubes, lipofection (X-tremeGENE HP), medium replaced after 4 h, cells collected day 4; each concentration in triplicate
Listed substances paired with reported log10 of EC50
Base-10 log of EC50, unit nM.

Answered examples (6):
6aKC-218 (antisense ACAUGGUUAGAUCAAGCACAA; all phosphorodiamidate morpholino (PMO), T or U not given here; Pip6aKC peptide conjugated) : 2.14
9b2KC-23b (antisense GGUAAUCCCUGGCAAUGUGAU; all phosphorodiamidate morpholino (PMO), T or U not given here; Pip9b2KC peptide conjugated) : 0.30
9b2KC-218 (antisense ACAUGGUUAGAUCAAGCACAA; all phosphorodiamidate morpholino (PMO), T or U not given here; Pip9b2KC peptide conjugated) : 0.41
9b2-218 (antisense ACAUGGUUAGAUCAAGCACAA; all phosphorodiamidate morpholino (PMO), T or U not given here; Pip9b2 peptide conjugated) : 1.81
TCTTACCTCAGTTACAATTTA-Pip9b2 [Scramble, reference compound] : 2.95
9b2-23b (antisense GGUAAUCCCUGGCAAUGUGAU; all phosphorodiamidate morpholino (PMO), T or U not given here; Pip9b2 peptide conjugated) : 1.20

// switching to the query substance
Item 6aKC-23b (antisense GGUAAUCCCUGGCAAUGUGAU; all phosphorodiamidate morpholino (PMO), T or U not given here; Pip6aKC peptide conjugated) : provide log10 of EC50
2.66

* * *

# System: HSALR mice
# EXPERIMENT_NOTES: Serum biochemistry profile
# Format: in vivo, mouse
# SETUP_CONDITIONS: mouse, in vivo, iv, 9.2 mg/kg
OBSERVED_PROPERTY: ALT

Recorded results for 5 substances are shown here.
9b2-23b (antisense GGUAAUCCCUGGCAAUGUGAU; all phosphorodiamidate morpholino (PMO), T or U not given here; Pip9b2 peptide conjugated) : 47 ± 6,708 U/L
9b2KC-23b (antisense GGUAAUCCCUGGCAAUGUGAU; all phosphorodiamidate morpholino (PMO), T or U not given here; Pip9b2KC peptide conjugated) : 45,20 ± 1,303 U/L
6aKC-23b (antisense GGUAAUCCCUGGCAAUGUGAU; all phosphorodiamidate morpholino (PMO), T or U not given here; Pip6aKC peptide conjugated) : 57,8 ± 13,349 U/L
9b2-218 (antisense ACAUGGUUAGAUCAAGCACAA; all phosphorodiamidate morpholino (PMO), T or U not given here; Pip9b2 peptide conjugated) : 49 ± 19,079 U/L
6aKC-218 (antisense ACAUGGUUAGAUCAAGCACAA; all phosphorodiamidate morpholino (PMO), T or U not given here; Pip6aKC peptide conjugated) : 60,20 ± 16,208 U/L

// next item, ALT requested
Input 9b2KC-218 (antisense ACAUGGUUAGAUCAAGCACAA; all phosphorodiamidate morpholino (PMO), T or U not given here; Pip9b2KC peptide conjugated) , output reported ALT.
47 ± 10 U/L

* * *

# Test system: HSALR mice
# EXPERIMENT_NOTES: White blood cell differential count
# Format: in vivo, mouse
# SETUP_CONDITIONS: mouse, in vivo, iv, 9.2 mg/kg
OBSERVED_PROPERTY: Basophils (%)
Supply the numeric figure in %, leaving out any unit text.

Use the examples below as a reference point.
9b2KC-218 (antisense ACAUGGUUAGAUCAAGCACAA; all phosphorodiamidate morpholino (PMO), T or U not given here; Pip9b2KC peptide conjugated) : 0
6aKC-23b (antisense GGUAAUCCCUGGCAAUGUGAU; all phosphorodiamidate morpholino (PMO), T or U not given here; Pip6aKC peptide conjugated) : 0

State Basophils on HSALR mice. Entry: 9b2KC-23b (antisense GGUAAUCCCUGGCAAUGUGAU; all phosphorodiamidate morpholino (PMO), T or U not given here; Pip9b2KC peptide conjugated)
0

# assay system HSALR mice: give Basophils of 6aKC-218 (antisense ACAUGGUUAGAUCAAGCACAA; all phosphorodiamidate morpholino (PMO), T or U not given here; Pip6aKC peptide conjugated)
0

* * *

Examples of substances with documented Tindex (therapeutic index) follow.
# Tested on: MBNL1 protein levels in DM1 cells
# Type: cell-based, human
# SETUP_CONDITIONS: Tindex = TC50 x Emax / EC50
The answer should be written as a number, with no unit following it.

Worked cases, Tindex (therapeutic index) given:
6aKC-23b (antisense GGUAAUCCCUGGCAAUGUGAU; all phosphorodiamidate morpholino (PMO), T or U not given here; Pip6aKC peptide conjugated) : 7.78
9b2KC-218 (antisense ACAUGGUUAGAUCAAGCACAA; all phosphorodiamidate morpholino (PMO), T or U not given here; Pip9b2KC peptide conjugated) : 198.07

Now let's try a different one.
Print MBNL1 protein levels in DM1 cells Tindex (therapeutic index) for 9b2-218 (antisense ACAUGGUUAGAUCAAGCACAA; all phosphorodiamidate morpholino (PMO), T or U not given here; Pip9b2 peptide conjugated) .
2.52

* * *

# Seg cells annotations
# Tested on: HSALR mice
# EXPERIMENT_NOTES: White blood cell differential count
# Assay type: in vivo, mouse
# SETUP_CONDITIONS: mouse, in vivo, iv, 9.2 mg/kg

Return value of Seg cells for input 9b2KC-218 (antisense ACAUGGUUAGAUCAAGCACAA; all phosphorodiamidate morpholino (PMO), T or U not given here; Pip9b2KC peptide conjugated) , no commentary.
25,8 ± 4,324%

Look up Seg cells of 9b2-218 (antisense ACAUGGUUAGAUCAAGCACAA; all phosphorodiamidate morpholino (PMO), T or U not given here; Pip9b2 peptide conjugated) and report it.
22,40 ± 3,647%

Give the measured Seg cells for 9b2KC-23b (antisense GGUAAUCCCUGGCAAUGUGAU; all phosphorodiamidate morpholino (PMO), T or U not given here; Pip9b2KC peptide conjugated)
23,5 ± 4,203%

Specify reported Seg cells for the substance shown: 9b2-23b (antisense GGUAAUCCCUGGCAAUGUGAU; all phosphorodiamidate morpholino (PMO), T or U not given here; Pip9b2 peptide conjugated)
21 ± 3,391%

Determine its reported Seg cells: 6aKC-218 (antisense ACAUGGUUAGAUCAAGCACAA; all phosphorodiamidate morpholino (PMO), T or U not given here; Pip6aKC peptide conjugated)
20,4 ± 6,189%

Given 6aKC-23b (antisense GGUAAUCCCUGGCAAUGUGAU; all phosphorodiamidate morpholino (PMO), T or U not given here; Pip6aKC peptide conjugated) , respond with its Seg cells.
31,2 ± 13,142%
